# System: Escherichia coli TOP10
# assay-protocol: shrunken log2 fold change of peptide-encoding DNA abundance (4.5 h post-induction vs induction); higher = less antimicrobial activity (less host growth inhibition)
# cond: time post-induction: 4.5 h; library: site-saturation at positions 5, 18, 19, 20
property-name: shrunken log2 fold change
// keep it numeric: no unit symbol after the value

Worked cases, answers included:
RRIRTRPPRLPRPRPRPGSCPRP
0.083
RRIRFRPPRLPRPRPRPCTQPRP
-0.549
RRIRRRPPRLPRPRPRPPCRPRP
1.09
RRIRGRPPRLPRPRPRPDLIPRP
0.87
RRIRYRPPRLPRPRPRPVPFPRP
-0.348

Notebook: `RRIRIRPPRLPRPRPRPPSLPRP` , shrunken log2 fold change read as 0.18

Notebook: `RRIRMRPPRLPRPRPRPHVCPRP` , shrunken log2 fold change read as -0.107

Notebook: `RRIRGRPPRLPRPRPRPCIVPRP` , shrunken log2 fold change read as 0.201

Notebook: `RRIRFRPPRLPRPRPRPKQFPRP` , shrunken log2 fold change read as 0.058

Notebook: `RRIRIRPPRLPRPRPRPFGEPRP` , shrunken log2 fold change read as -0.202

Notebook: `RRIRNRPPRLPRPRPRPCEAPRP` , shrunken log2 fold change read as -0.18

Notebook: `RRIRERPPRLPRPRPRPIFVPRP` , shrunken log2 fold change read as -0.295

Notebook: `RRIRKRPPRLPRPRPRPFSEPRP` , shrunken log2 fold change read as -0.0185

Notebook: `RRIRGRPPRLPRPRPRPENKPRP` , shrunken log2 fold change read as 0.32

Notebook: `RRIRTRPPRLPRPRPRPIDSPRP` , shrunken log2 fold change read as -0.162

Notebook: `RRIRRRPPRLPRPRPRPFDEPRP` , shrunken log2 fold change read as 0.0762

Notebook: `RRIRRRPPRLPRPRPRPMDLPRP` , shrunken log2 fold change read as 0.0641

Notebook: `RRIRHRPPRLPRPRPRPWFAPRP` , shrunken log2 fold change read as -0.217

Notebook: `RRIRHRPPRLPRPRPRPQLMPRP` , shrunken log2 fold change read as -0.351

Notebook: `RRIRNRPPRLPRPRPRPTCAPRP` , shrunken log2 fold change read as 0.161

Notebook: `RRIRWRPPRLPRPRPRPPDRPRP` , shrunken log2 fold change read as 0.166

Notebook: `RRIRMRPPRLPRPRPRPRKVPRP` , shrunken log2 fold change read as 0.767

Notebook: `RRIRTRPPRLPRPRPRPYAKPRP` , shrunken log2 fold change read as -0.0117

Notebook: `RRIRGRPPRLPRPRPRPFSDPRP` , shrunken log2 fold change read as 0.165

Notebook: `RRIRTRPPRLPRPRPRPQYAPRP` , shrunken log2 fold change read as -0.317

Notebook: `RRIRSRPPRLPRPRPRPETNPRP` , shrunken log2 fold change read as -0.0626

Notebook: `RRIRLRPPRLPRPRPRPQSDPRP` , shrunken log2 fold change read as -0.205

Notebook: `RRIRCRPPRLPRPRPRPTSEPRP` , shrunken log2 fold change read as 0.108

----------
# Tested on: Escherichia coli TOP10;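 further: peptides expressed intracellularly from a pBAD plasmid library in pooled LB shake-flask culture, induced with 0.3% L-arabinose, DNA abundance read by NGS, three biological replicates, DESeq2 with apeglm shrinkage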
# assay-protocol: shrunken log2 fold change of peptide-encoding DNA abundance (4.5 h post-induction vs induction); higher = less antimicrobial activity (less host growth inhibition)
# cond: time post-induction: 4.5 h; library: site-saturation at positions 5, 18, 19, 20
property-name: shrunken log2 fold change
// keep it numeric: no unit symbol after the value

RRIRMRPPRLPRPRPRPEQPPRP
0.395
RRIRMRPPRLPRPRPRPAGRPRP
0.725
RRIRGRPPRLPRPRPRPIKKPRP
0.00565
RRIRGRPPRLPRPRPRPQNHPRP
-0.18
RRIRCRPPRLPRPRPRPRMAPRP
0.331
RRIRIRPPRLPRPRPRPIHVPRP
0.0502
RRIRPRPPRLPRPRPRPAGMPRP
-0.00962
RRIRWRPPRLPRPRPRPGANPRP
0.0566

Notebook: `RRIRIRPPRLPRPRPRPCEYPRP` , shrunken log2 fold change read as -0.115

Notebook: `RRIRFRPPRLPRPRPRPGCFPRP` , shrunken log2 fold change read as 0.0214

Where do these numbers come from? They come from the supplement of paper PMC9112550.
